# testedTarget: mfPRLR.mmh (monomeric macaca fascicularis PRLR)
# Sequence (as listed by the source): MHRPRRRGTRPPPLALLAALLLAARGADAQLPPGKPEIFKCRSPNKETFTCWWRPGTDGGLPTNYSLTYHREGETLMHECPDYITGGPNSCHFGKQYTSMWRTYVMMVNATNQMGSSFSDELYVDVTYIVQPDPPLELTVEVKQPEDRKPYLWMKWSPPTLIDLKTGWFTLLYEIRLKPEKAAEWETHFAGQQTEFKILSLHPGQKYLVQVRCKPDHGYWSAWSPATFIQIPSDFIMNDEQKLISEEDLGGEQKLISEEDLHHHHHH
# assayComment: Surface plasmon resonance (Biacore T200), mAb-capture format
# Format: binding
# conditionDescription: 37° C., antibody-capture format, analyte mfPRLR.mmh
Please assign Criterion not met whenever Kd is at or above 5 nM, and Criterion met whenever it is below.

# molecule, categoryLabel
measured = [
    ("H1H6959N2: human IgG1 Fc form of H2M6959N2; anti-PRLR; HCVR/LCVR SEQ ID NOs 306/314 (antibody, V domains shown, human IgG1 Fc) VH: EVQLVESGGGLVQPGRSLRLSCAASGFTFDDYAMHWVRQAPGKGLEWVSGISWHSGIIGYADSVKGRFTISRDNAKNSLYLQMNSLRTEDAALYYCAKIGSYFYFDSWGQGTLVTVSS VL: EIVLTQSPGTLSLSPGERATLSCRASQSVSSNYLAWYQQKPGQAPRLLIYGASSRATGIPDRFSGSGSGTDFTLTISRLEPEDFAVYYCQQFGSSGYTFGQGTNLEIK", "Criterion not met"),
    ("H1H6797P: anti-PRLR antibody, human IgG1 Fc; HCVR/LCVR SEQ ID NOs 178/186 (antibody, V domains shown, human IgG1 Fc) VH: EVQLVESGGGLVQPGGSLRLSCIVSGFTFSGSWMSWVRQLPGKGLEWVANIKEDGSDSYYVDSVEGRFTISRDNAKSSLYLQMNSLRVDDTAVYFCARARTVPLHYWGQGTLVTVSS VL: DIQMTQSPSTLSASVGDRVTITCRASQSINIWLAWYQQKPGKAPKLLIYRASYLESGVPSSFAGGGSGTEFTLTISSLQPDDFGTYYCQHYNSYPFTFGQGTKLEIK", "Criterion not met"),
    ("H1H6953N: human IgG1 Fc form of H1M6953N; anti-PRLR; HCVR/LCVR SEQ ID NOs 274/282 (antibody, V domains shown, human IgG1 Fc) VH: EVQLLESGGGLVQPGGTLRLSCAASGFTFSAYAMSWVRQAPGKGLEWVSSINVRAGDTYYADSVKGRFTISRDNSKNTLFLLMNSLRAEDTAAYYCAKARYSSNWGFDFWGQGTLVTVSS VL: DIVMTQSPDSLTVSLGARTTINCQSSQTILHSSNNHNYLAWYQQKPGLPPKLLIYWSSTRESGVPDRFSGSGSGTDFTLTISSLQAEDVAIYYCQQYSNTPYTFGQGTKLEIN", "Criterion met"),
    ("H1H6782P: anti-PRLR antibody, human IgG1 Fc; HCVR/LCVR SEQ ID NOs 66/74; non-blocking (antibody, V domains shown, human IgG1 Fc) VH: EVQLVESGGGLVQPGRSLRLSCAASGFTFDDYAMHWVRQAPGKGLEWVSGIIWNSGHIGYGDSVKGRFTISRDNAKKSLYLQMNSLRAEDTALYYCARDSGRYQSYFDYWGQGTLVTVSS VL: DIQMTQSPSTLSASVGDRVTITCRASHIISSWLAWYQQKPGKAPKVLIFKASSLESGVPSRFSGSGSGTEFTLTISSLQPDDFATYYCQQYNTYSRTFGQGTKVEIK", "Criterion met"),
    ("H1H6762P: anti-PRLR antibody, human IgG1 Fc; HCVR/LCVR SEQ ID NOs 2/10 (antibody, V domains shown, human IgG1 Fc) VH: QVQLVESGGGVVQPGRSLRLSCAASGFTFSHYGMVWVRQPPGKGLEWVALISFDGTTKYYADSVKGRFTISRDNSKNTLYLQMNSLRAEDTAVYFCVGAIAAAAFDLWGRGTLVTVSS VL: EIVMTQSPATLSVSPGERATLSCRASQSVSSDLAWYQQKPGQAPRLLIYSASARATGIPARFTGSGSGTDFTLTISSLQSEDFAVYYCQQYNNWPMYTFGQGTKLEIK", "Criterion met"),
    ("H1H6966N: human IgG1 Fc form of H2M6966N; anti-PRLR; HCVR/LCVR SEQ ID NOs 338/346 (antibody, V domains shown, human IgG1 Fc) VH: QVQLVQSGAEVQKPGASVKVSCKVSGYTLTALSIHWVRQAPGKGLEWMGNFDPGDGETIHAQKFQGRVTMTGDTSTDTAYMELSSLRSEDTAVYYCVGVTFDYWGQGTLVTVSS VL: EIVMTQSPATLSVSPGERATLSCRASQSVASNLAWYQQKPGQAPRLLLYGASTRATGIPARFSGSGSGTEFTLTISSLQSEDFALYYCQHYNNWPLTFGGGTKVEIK", "Criterion met"),
    ("H1H6793P: anti-PRLR antibody, human IgG1 Fc; HCVR/LCVR SEQ ID NOs 146/154 (antibody, V domains shown, human IgG1 Fc) VH: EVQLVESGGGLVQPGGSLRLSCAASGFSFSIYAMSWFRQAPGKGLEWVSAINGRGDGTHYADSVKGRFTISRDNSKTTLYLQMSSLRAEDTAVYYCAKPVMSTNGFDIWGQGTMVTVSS VL: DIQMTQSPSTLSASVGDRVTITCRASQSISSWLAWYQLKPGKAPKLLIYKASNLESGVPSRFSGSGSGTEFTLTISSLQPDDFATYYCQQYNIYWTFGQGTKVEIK", "Criterion met"),
]
